The reported measurements were obtained from paper PMC7261474.

Biological target: cruzain (Trypanosoma cruzi, UniProt P25779)
Sequence (P25779 123-467): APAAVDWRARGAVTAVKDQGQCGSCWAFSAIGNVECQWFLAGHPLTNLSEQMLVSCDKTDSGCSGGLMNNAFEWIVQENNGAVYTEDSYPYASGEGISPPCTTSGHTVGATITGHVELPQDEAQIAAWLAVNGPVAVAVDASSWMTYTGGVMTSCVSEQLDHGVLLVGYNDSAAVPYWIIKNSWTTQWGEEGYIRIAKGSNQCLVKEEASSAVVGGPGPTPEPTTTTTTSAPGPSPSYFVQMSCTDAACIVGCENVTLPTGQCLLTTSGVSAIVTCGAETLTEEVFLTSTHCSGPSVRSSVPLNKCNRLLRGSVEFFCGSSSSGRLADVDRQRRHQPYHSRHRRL
Assay: Cruzain-catalysed hydrolysis of fluorogenic dipeptide-AMC substrates
Type: biochemical
Conditions: pH 7.5, 25 °C, 10% DMSO (v/v)
Where a SMILES comes first, the peptide text is derived from it. [ ]: non-standard residue; d: D form. The star is where a group is joined. hPhe = N[C@@H](CCc1ccccc1)C(=O)O; AMC = Cc1cc(=O)oc2cc(N*)ccc12; Cbz = O=C(OCc1ccccc1)*
Would you mind labelling by kcat? At or over 4 s⁻¹ is Fulfilled, under is Not fulfilled.

>>> class_assignment("Cc1cc(=O)oc2cc(NC(=O)[C@H](CCCN=C(N)N)NC(=O)[C@H](CC(C)C)NC(=O)OCc3ccccc3)ccc12")
"Fulfilled"
>>> class_assignment("Cc1cc(=O)oc2cc(NC(=O)[C@H](CCCN=C(N)N)NC(=O)[C@H](Cc3ccccc3)NC(=O)OCc3ccccc3)ccc12 [S1, Cbz-Phe-Arg-AMC, reference compound] (Cbz-Phe-Arg-{AMC})")
"Fulfilled"
>>> class_assignment("Cc1cc(=O)oc2cc(NC(=O)[C@H](CCc3ccccc3)NC(=O)[C@H](Cc3ccccc3)NC(=O)OCc3ccccc3)ccc12 [S2, Cbz-Phe-hPhe-AMC] (Cbz-Phe-[hPhe]-{AMC})")
"Not fulfilled"

Consider now this further molecule.
Incoming: Test whether the molecule Cc1cc(=O)oc2cc(NC(=O)[C@H](Cc3ccccc3)NC(=O)[C@H](Cc3ccccc3)NC(=O)N3CCN(C)CC3)ccc12 [S11, NMePip-Phe-Phe-AMC] records kcat of 4 s⁻¹ or higher.
Outgoing: Not fulfilled
